Molecular target: Human DP1 receptor (Homo sapiens (Human), UniProt Q13258)
Sequence (Q13258 whole entry): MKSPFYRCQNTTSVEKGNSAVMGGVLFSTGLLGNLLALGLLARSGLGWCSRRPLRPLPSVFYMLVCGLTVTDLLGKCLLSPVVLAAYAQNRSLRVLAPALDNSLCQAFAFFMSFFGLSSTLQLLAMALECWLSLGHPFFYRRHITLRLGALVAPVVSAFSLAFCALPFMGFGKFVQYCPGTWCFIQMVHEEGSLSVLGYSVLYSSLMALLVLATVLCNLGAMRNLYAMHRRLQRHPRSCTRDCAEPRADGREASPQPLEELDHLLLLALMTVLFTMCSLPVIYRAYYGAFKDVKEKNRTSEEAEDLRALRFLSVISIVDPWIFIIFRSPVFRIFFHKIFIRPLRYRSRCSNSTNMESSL
Test: Human DP1 inhibitory activity in DP1-expressing cell (PGD2-induced cAMP)
Type: cell-based
Settings: category of cAMP IC50, human DP1 receptor expressing Jurkut cell
Method: Compounds were categorized as AA (cAMP is less than 100 nM) and A (cAMP is more than 100 nM and less than 5000 nM) as shown in Table 99 and 100.

- compound: "CCOc1ccc(S(=O)(=O)N2C[C@@H](C)[C@@H](n3cc(CC(=O)O)c4ccc(C#N)cc43)C2)cc1"
  IC50: "< 100 nM"
- compound: "CC(C)Oc1ccc(S(=O)(=O)N2C[C@@H](C)[C@@H](n3nc(CC(=O)O)c4ccc(F)cc43)C2)cn1 [Compound I-57]"
  IC50: "< 100 nM"
- compound: "CCOc1cc(F)c(S(=O)(=O)N2C[C@@H](C)[C@@H](n3nc(CC(=O)O)c4ccc(F)cc43)C2)c(F)c1"
  IC50: "100 to 5000 nM"
- compound: "CCOc1ccc(S(=O)(=O)N2C[C@@H](C)[C@@H](n3nc(C(C)(O)C(=O)O)c4ccccc43)C2)cc1 (stereo partly shown)"
  IC50: "< 100 nM"
